# target.or.test.system: T1, PUF4 RNA-binding domain (Saccharomyces cerevisiae, UniProt P25339 537-888)
# T1 sequence: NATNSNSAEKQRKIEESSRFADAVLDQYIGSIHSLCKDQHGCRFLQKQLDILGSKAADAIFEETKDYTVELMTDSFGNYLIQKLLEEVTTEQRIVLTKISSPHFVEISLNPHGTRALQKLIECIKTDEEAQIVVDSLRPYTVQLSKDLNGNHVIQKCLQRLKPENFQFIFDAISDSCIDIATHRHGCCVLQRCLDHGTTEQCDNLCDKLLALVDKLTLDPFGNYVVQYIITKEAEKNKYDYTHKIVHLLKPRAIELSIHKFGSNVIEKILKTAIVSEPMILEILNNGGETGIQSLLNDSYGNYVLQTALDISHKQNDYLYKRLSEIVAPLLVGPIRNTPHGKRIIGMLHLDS
# experimental.details: Mg; RNA-MaP; 20 mM Na-HEPES pH 7.4, 30 mM KOAc, 0.75 mM MgCl2, 0.1% Tween-20, 5% glycerol, 0.1 mg/mL BSA, 2 mM DTT; 25 C; 0.0125-409.6 nM protein
# conditions.used: tags: N-His6-TEV cleaved; C-SNAP kept, Cy3B-labelled; label: tethered on chip by stalled RNA polymerase
pKd: −log10 of the molar value.
We use 8 as the dividing line for pKd: on or above the line is MET, below is NOT MET.

(Q) // inclusive: pKd at least 8? input: ACAAACAAACACUAUACAACAAAC (ssRNA) [Id_ii_S3_P3E.4_K3.3_C3.2_[C-2A]_[T-1A]_H3.3_A3.1_F3.1_T3.2_[T9C]]
(A) NOT MET

(Q) Also UCUCUUUUACACUAUUACGUCUCUU (ssRNA) [Id_ii_S1_P4E.4_K4.3_C4.2_[C-2T]_H4.3_A4.1_F4.1_T4.2_[G10C]_[T11G]] , if possible.
(A) NOT MET

(Q) Also Ib_S2_P5E.1_K5.1_C5.1_H5.1_[T3C]_A5.1_[T6C]_F5.1_T5.1 (ssRNA) RNA: UUUGAUUAAUAUGAUAUCGUUCUUUCUUGCAUCAUUAUUCUUUCUCGAUAUCAUAUUAAUCUUU , if possible.
(A) NOT MET

(Q) Also Ib_S4_P3E.1_K3.1_C3.1_H3.1_[T3C]_[A4G]_A3.1_F3.1_T3.1 (ssRNA) RNA: UUUGACAACUGAUCGUUCUUUCUUGCGUAUAUUCUUUCUCGAUCAGUUGUCUUU , if possible.
(A) NOT MET

(Q) Also Ic_S2_P4E.1_K4.1_C4.1_H4.1_A4.1_[T5C]_[T7C]_F4.1_[A9G]_T4.1 (ssRNA) RNA: UUUGAUUAAUAUGAUAUCGUUCUUUCUUGUACACUGUUCUUUCUCGAUAUCAUAUUAAUCUUU , if possible.
(A) MET
